Source: patent US20120141376A1

Tested on: HLA class I (e.g. HLA-A2) expressing adherent 293T cells
PROTOCOL_DESCRIPTION: CTL assay on reverse transfected microarray (caspase activation, fluorescent Z-VAD)
Assay type: cell-based, human
CONDITION_LABEL: HLA-matched CD8+ T cells from prostate cancer patients incubated 4 hours on array; red fluorescent signal = positive response
READOUT_TYPE: Patient ID with positive hit

molecule="No. 21: DATAS fragment; GenBank human mRNA AK123820; exon extension (nucleic acid, listed as Homo sapiens) DNA: GGCGGCAGGTCTAATCTGGCACACTTGCTAACTTCTAATAAAGAATCAAATGGTCTTCCAACTCACATAATGACTAATTCTAAAGCATGCAACCTCAAAGTACTACATTCTCCCTGTTCTAGAAATACAACCCTAGAGGGCCAGTCTTCCTTCAGCATTCAAATATTGAGTAGAACAACTGAACTGTAAGGTTCAACTAAAGGAATGCAACTGTGACTTGAGCTGTGGAACGGCTATGGCCTAAGTCAAGAATTCTCAACCTCCCAC" result_value=EYGRT
